These data points were gathered from patent US9201014B2.

Reported λem, fluorescence maximum wavelength values follow for various molecules
- assay notes: Absorbance and fluorescence maximum wavelengths and quantum yields of the CyNA library
- Assay type: physicochemical
- conditions used: CyNA library
Give your result in nm as a bare value.

Example entries begin here.
molecule	quantitative result
CCCCCCCCCCN(C(C)=O)C1=C(/C=C/C2=[N+](CCC)c3ccccc3C2(C)C)CCC/C1=C\C=C1\N(CCC)c2ccccc2C1(C)C	820
CCCN1/C(=C/C=C2\CCCC(/C=C/C3=[N+](CCC)c4ccccc4C3(C)C)=C2N(Cc2ccccn2)C(C)=O)C(C)(C)c2ccccc21	820
CCCN1/C(=C/C=C2\CCCC(/C=C/C3=[N+](CCC)c4ccccc4C3(C)C)=C2N(Cc2ccc(OC)cc2OC)C(C)=O)C(C)(C)c2ccccc21 [CyNA-358]	819
CCCN1/C(=C/C=C2\CCCC(/C=C/C3=[N+](CCC)c4ccccc4C3(C)C)=C2N(CCc2cccc(OC)c2)C(C)=O)C(C)(C)c2ccccc21	822
CCCN1/C(=C/C=C2\CCCC(/C=C/C3=[N+](CCC)c4ccccc4C3(C)C)=C2N(CCCN2CCCCC2C)C(C)=O)C(C)(C)c2ccccc21.[I-] (stereo not drawn)	819

API: the following record is the query input.
Any idea what its λem, fluorescence maximum wavelength is? The molecule is `CCCN1/C(=C/C=C2\CCCC(/C=C/C3=[N+](CCC)c4ccccc4C3(C)C)=C2N(CCCOCC)C(C)=O)C(C)(C)c2ccccc21`
818
